assay: Rodent pharmacokinetics (rat PK); type: in vivo; details: po, dosed intravenously or orally by gavage, plasma, read-out: F % (bioavailability)
Reported bioavailability values are given for each entry in this list.
assay endpoint: bioavailability

INSERT INTO measurements (compound, measured) VALUES
  ('Cn1c(=O)n(C2CCC(=O)NC2=O)c2cccc(N3CCC4(CCN(C[C@H]5CC[C@H](c6nc7cc(C(C)(C)O)c(NC(=O)c8cccc(C(F)(F)F)n8)cc7o6)CC5)CC4(F)F)CC3)c21 (some centres unmarked)', '≥ 5%'),
  ('Cn1c(=O)n(C2CCC(=O)NC2=O)c2cccc([C@@H]3CCN(C[C@H]4CC[C@H](n5cc6cc(NC(=O)c7cc(C(F)(F)F)cnn7)ccc6n5)CC4)C[C@H]3F)c21 (some centres unmarked)', '≤ 5%'),
  ('COc1cn2nc([C@H]3CC[C@H](CN(C)[C@H]4CCN(c5cccc6c5n(C)c(=O)n6C5CCC(=O)NC5=O)C[C@H]4F)CC3)cc2cc1NC(=O)c1cncc(C(F)(F)F)n1 (single isomer, unassigned)', '≤ 5%'),
  ('Cn1c(=O)n(C2CCC(=O)NC2=O)c2cccc(N3CC4(CCN(C[C@H]5CC[C@H](n6cc7cc(NC(=O)c8cncc(C(F)(F)F)n8)ncc7n6)CC5)CC4(F)F)C3)c21 (some centres unmarked)', '≤ 5%'),
  ('Cn1cc(Cl)c(C(=O)Nc2ccc3nn([C@H]4CC[C@H](CN5CC[C@@H](c6cccc7c6n(C)c(=O)n7C6CCC(=O)NC6=O)[C@H](F)C5)CC4)cc3c2)n1 (some centres unmarked)', '≤ 5%'),
  ('Cn1c(=O)n(C2CCC(=O)NC2=O)c2cccc([C@H]3CCN(C[C@H]4CC[C@H](n5cc6cc(NC(=O)c7cncc(C(F)(F)F)n7)ncc6n5)CC4)CC3(F)F)c21 (single isomer, unassigned)', '≤ 5%'),
  ('Cn1nc(N2CCC(=O)NC2=O)c2cccc(N3CCC4(CCN(C[C@H]5CC[C@H](n6cc7cc(NC(=O)c8cncc(C#N)c8)c(C(C)(C)O)cc7n6)CC5)CC4(F)F)CC3)c21', '≤ 5%'),
  ('Cn1c(=O)n(C2CCC(=O)NC2=O)c2cccc(N3CCC4(CCN(C[C@H]5CC[C@H](c6nc7cc(C(C)(C)O)c(NC(=O)c8cccc(C(F)(F)F)n8)cc7s6)CC5)CC4(F)F)CC3)c21 (some centres unmarked)', '≤ 5%'),
  ('Cn1c(=O)n(C2CCC(=O)NC2=O)c2cccc([C@@H]3CCN(C[C@H]4CC[C@H](n5cc6cc(NC(=O)c7cncc(C(F)(F)F)n7)cc(F)c6n5)CC4)C[C@H]3F)c21 (some centres unmarked)', '≤ 5%'),
  ('Cn1c(=O)n(C2CCC(=O)NC2=O)c2cccc([C@@H]3CCN(C[C@H]4CC[C@H](n5cc6cc(NC(=O)c7cncc(C(F)(F)F)n7)ncc6n5)CC4)CC3(F)F)c21 (single isomer, unassigned)', '≥ 5%'),
  ('COc1cc2nn([C@H]3CC[C@H](CN4CCC5(CN(c6cccc7c6n(C)c(=O)n7C6CCC(=O)NC6=O)C5)C(F)(F)C4)CC3)cc2cc1NC(=O)c1cncc(F)c1 (some centres unmarked)', '≤ 5%'),
  ('Cn1c(=O)n(C2CCC(=O)NC2=O)c2cccc([C@@H]3CCN(C[C@H]4CC[C@H](n5cc6cc(NC(=O)c7cncc(C(F)(F)F)n7)ncc6n5)CC4)C[C@H]3F)c21 (some centres unmarked)', '≤ 5%'),
  ('Cn1c(=O)n(C2CCC(=O)NC2=O)c2cccc([C@@H]3CCN(C[C@H]4CC[C@H](c5cn6cc(NC(=O)c7cncc(C(F)(F)F)n7)c(C(C)(C)O)cc6n5)CC4)C[C@H]3F)c21 (some centres unmarked)', '≤ 5%'),
  ('Cn1c(=O)n(C2CCC(=O)NC2=O)c2cccc(N3CCC4(CCN(C[C@H]5CC[C@H](c6nc7cc(C(C)(C)O)c(NC(=O)c8cncc(C#N)c8)cc7s6)CC5)CC4(F)F)CC3)c21 (some centres unmarked)', '≤ 5%'),
  ('Cn1c(=O)n(C2CCC(=O)NC2=O)c2cccc([C@@H]3CCN(C[C@H]4CC[C@H](n5cc6cc(NC(=O)c7nc(C(F)(F)F)cs7)ccc6n5)CC4)C[C@H]3F)c21 (some centres unmarked)', '≤ 5%'),
  ('CC(C)(O)c1cc2nn([C@H]3CC[C@H](CN4CCC5(CCN(c6cccc7c(N8CCC(=O)NC8=O)cncc67)CC5)C(F)(F)C4)CC3)cc2cc1NC(=O)c1cncc(C#N)c1', '≤ 5%'),
  ('Cn1c(=O)n(C2CCC(=O)NC2=O)c2cccc(CCCOC[C@H]3CC[C@H](n4cc(NC(=O)c5cnn6ccc(N7C[C@H]8C[C@@H]7CO8)nc56)c(C(F)F)n4)CC3)c21 (some centres unmarked)', '≤ 5%'),
  ('COc1cc2nn([C@H]3CC[C@H](CN4CC[C@@H](c5c(Cl)ccc6c5n(C)c(=O)n6C5CCC(=O)NC5=O)[C@H](F)C4)CC3)cc2cc1NC(=O)c1cncc(C#N)c1 (some centres unmarked)', '≤ 5%'),
  ('Cn1c(=O)n(C2CCC(=O)NC2=O)c2cccc([C@@H]3CCN(C[C@H]4CC[C@H](n5cc6cc(NC(=O)c7ccnc(C(F)(F)F)n7)ccc6n5)CC4)C[C@H]3F)c21 (some centres unmarked)', '≤ 5%'),
  ('Cn1c(=O)n(C2CCC(=O)NC2=O)c2cccc(C#CCOC[C@H]3CC[C@H](n4cc(NC(=O)c5cnn6ccc(N7C[C@H]8C[C@@H]7CO8)nc56)c(C(F)F)n4)CC3)c21 (some centres unmarked)', '≥ 5%');
